Below: a set of entries, each annotated with reported protease stability score.
Assay: protease stability score; higher = more stable; yeast display proteolysis, trypsin and chymotrypsin;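 further: relative to predicted unfolded state with 0 unfolded-like and 1 meaning tenfold more protease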
readout: protease stability score

> print(dat)
                         biopolymer.sequence                   readout  numeric.value
 1  DERQEEARKMFEDVYKAVWTGDEEELLRLMDPNVRIDIDGKILHGREALSEEWKRVDHVHHEHHEDMKVIGNKLHVRGHIEVDIDGRNLRYTIDNYLVVVNGRIKEVKEREV  protease stability score          0.664
 2  SEEERDLREALEEHKRTLQTGDEELWNKLFDPHARSDINGVEFHGMEDISRHIYKFFIDFGFKHVRFKHVELYGDKLVMRGSLNINGVDLDIEIISRKIDGRWLIHHWIIR  protease stability score          0.859
 3  NEEEEESRRAFHLLVELLRTGDEESFTKLADPHMRIIVDGREIHGREEMRRFMEEHWERFPNMKVRIEHFRVQGDKVTIHTVVHIGDKEIEVHIHARKVNGRWIMKELIIVTR  protease stability score          0.552
 4  DEEKELNRHLAELWLHWWFTGDEEVITEMADPEVRFEVDGRTFHGRETLSRMISEKKRDLGADHERLRDVKVIGDKVHIESVIHVNGRELEVHIIIVVYNGRLKELRVEVK  protease stability score           1.04
 5  DEDEKEQKEIADLWKKYVDTGDEKLLMELMDPTARLNIGDKRFHGRETFEHVMREIKKRYDHFELHIHHIDIQGEKIRMEGREINKFDGKTVDIRTRIRIIVVNGRITFLHHQLD  protease stability score          0.622
 6  DELEHLERQLAEEILEDFMTGNEENFDHLADPNVKHDINGVEIIGREHYVEWWRRIKNVKIELKRYHIIGDKATIDGHEVFEGRRHKMILELDIVNGQIKRVRFELR  protease stability score          0.986
 7  TEEEEHLHTLASKDLKAFMTGDWETHKKLADPHVRFELVVGEWRLILHGRERFIEFLIEVLEKMGVDHFHLQHVEVIGNFVRLNIKIEVGDKTHDTRIDLEYINGVIHDVRVEFK  protease stability score           2.02
 8  DDREKDSKREVKEFLEMFITGDEERWSKMADPNVRLHFDGVESHGREEALRIMRLLLEQFKNLKVTDVQLTSIEIQGEKALIRTRIHTEVNGKEDSLDVILFATKFDGRWIINSIEIR  protease stability score            1.1
 9  SEEFEIYKRASELLAHLMLTGDFDTMNKLMDPNVRLDVDGVDFHGRELVNRKFQHMRIEHTHIERVIWIGDKVHVHTTMTGNIDGRRDERKMEIVSHKVDGRWHVHSVIIL  protease stability score           1.12
10  SEDEEDMKKASETISEEYHTGDEDAHKKLMDPNARMLYGDKDTHGREHWEHVIKRFGFDHVIIKRIEIHVYDGRIDLHMDVRLIVNGQNLEVRLIIIVRKINGRWRIESVNIHIE  protease stability score          0.061
11  DDREEELQHLMELILFLLVTGNEEIWMRMADPDVKSRISIGDKQETYHGRETVARYMIHERHFYKNIQVKFDDVQVQGDKVIVILTFHWNGREIEVIHTFIVINGKLTSWEVRFIHR  protease stability score           1.42
